Tested on: biotinyl-Met-oxazolone
measurement-description: self-aminoacylation, catalytic enhancement (BMO) (fold over background); higher = more active; k-Seq, kA / k0A0; sequences stand for … in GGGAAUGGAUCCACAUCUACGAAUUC…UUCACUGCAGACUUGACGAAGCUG
This sample holds only a part of the variants without activity.
property-label: self-aminoacylation

1) AUUACGCUAGUCAUCGAGUGA [Fam2.1 aminoacylation ribozyme variant]
3.01
2) AUUACCCUGGUGAUCGAGUGA [Fam2.1 aminoacylation ribozyme variant]
5.19
3) CCACACUUCAAGCAAUCGGCA [Fam1B.1 aminoacylation ribozyme variant]
0.777

Fill: self-aminoacylation (biotinyl-Met-oxazolone) for this sequence CCACGCUUCAGGCAAUCGGUC [Fam1B.1 aminoacylation ribozyme variant]
1.35

Fill: self-aminoacylation (biotinyl-Met-oxazolone) for this sequence AUUACCCUGGUCAUCAAGUUA [Fam2.1 aminoacylation ribozyme variant]
0.684

Fill: self-aminoacylation (biotinyl-Met-oxazolone) for this sequence AAGUUUGGCAAUAGUCGCAAG [Fam3.1 aminoacylation ribozyme variant]
1.49

Fill: self-aminoacylation (biotinyl-Met-oxazolone) for this sequence CCACACUUGAAGCAAUCGGGC [Fam1B.1 aminoacylation ribozyme variant]
1.34

Fill: self-aminoacylation (biotinyl-Met-oxazolone) for this sequence AUUAUCCUGGUCAUCUAGUGA [Fam2.1 aminoacylation ribozyme variant]
10.6

Fill: self-aminoacylation (biotinyl-Met-oxazolone) for this sequence CUACUUCAAACAUUCAGUCUG [Fam1A.1 aminoacylation ribozyme variant]
0.734

Fill: self-aminoacylation (biotinyl-Met-oxazolone) for this sequence AUUACCCUGGUUAUCGUGUGA [Fam2.1 aminoacylation ribozyme variant]
2.4

Fill: self-aminoacylation (biotinyl-Met-oxazolone) for this sequence AAGGUUGCUAGUAGUCGCAAG [Fam3.1 aminoacylation ribozyme variant]
1.3

Fill: self-aminoacylation (biotinyl-Met-oxazolone) for this sequence AAGUUUGCUACUAGUCGGAAG [Fam3.1 aminoacylation ribozyme variant]
0.712

Fill: self-aminoacylation (biotinyl-Met-oxazolone) for this sequence CUACUUUACACAAUCGGUCUG [Fam1A.1 aminoacylation ribozyme variant]
0.872

Fill: self-aminoacylation (biotinyl-Met-oxazolone) for this sequence CUACUUCAUACAAUGGGUCUG [Fam1A.1 aminoacylation ribozyme variant]
0.755

Fill: self-aminoacylation (biotinyl-Met-oxazolone) for this sequence AAGUUAGCUAAUGGUCGCAAG [Fam3.1 aminoacylation ribozyme variant]
1.3

Fill: self-aminoacylation (biotinyl-Met-oxazolone) for this sequence AAGCUUGCUAAUAGUCGCAAU [Fam3.1 aminoacylation ribozyme variant]
2.34
